test: qHTS for differential inhibitors of proliferation of Plasmodium falciparum line HB3 (AID 1886); conditions: Plasmodium falciparum HB3 proliferation inhibition; series mostly up to 28.7 µM;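 note: parasites grown with compound for 72 h before SYBR Green readout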
Inconclusive results are not listed. The source made the active and inactive calls. Calls come from the whole dose curve; as a rule, active = well fitted curve in the direction sought with a large enough effect; inconclusive = small, poorly fitted or top-dose-only effect, or another doubt; inactive = no such curve, though single readings can be large or run the other way.
Field 'call' accepts active, inactive

The examples below pair each entry with its known result.
[
  {
    "smiles-entry": "NC(=O)CN1CCCC1=O",
    "group": "inactive"
  },
  {
    "smiles-entry": "c1ccc2nc(N3CCNCC3)ccc2c1",
    "group": "inactive"
  },
  {
    "smiles-entry": "O=C(O)c1nn(Cc2ccc(Cl)cc2Cl)c2ccccc12",
    "group": "inactive"
  }
]

Field: next molecule
### Prompt What outcome does the record of this test show for `C[N+](C)(C)CCCCCCCCCC[N+](C)(C)C` ?
### Response active
